# systemTested: Csk (Homo sapiens, UniProt P41240)
# Construct: GST (glutathione-S-transferase) (N); made in house; host or cells: E. coli (pGEX vector)
# Sequence (P41240 whole entry, species assumed): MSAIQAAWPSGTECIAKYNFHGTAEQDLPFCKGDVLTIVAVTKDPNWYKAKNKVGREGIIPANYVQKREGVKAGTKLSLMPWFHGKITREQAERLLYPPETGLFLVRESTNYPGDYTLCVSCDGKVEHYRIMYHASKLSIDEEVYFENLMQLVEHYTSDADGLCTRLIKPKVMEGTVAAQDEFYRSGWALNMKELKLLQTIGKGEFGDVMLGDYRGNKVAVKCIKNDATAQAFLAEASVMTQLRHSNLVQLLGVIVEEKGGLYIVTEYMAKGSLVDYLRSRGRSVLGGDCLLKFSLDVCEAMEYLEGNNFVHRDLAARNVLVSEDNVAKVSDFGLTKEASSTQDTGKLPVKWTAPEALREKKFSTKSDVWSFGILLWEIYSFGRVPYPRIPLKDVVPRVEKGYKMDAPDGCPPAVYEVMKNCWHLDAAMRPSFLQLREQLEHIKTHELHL
# runDescription: Csk tyrosine kinase activity, poly E4Y and 32P-ATP
# Type: biochemical
# conditionDescription: screening assay, 50 μg/ml poly E4Y, 0.2 mM 32P-ATP
pIC50: −log10 of the molar value.
quantityName: pIC50

// worked examples, pIC50 included
>  <compound>
CCOc1cccc(C=NNc2ncnc3c(C)csc23)c1 [Compound 138]

>  <measurement>
< 3.80

$$$$
>  <compound>
COc1cc(C=NNc2ncnc3c(C)csc23)ccc1O [Compound 53]

>  <measurement>
< 3.80

$$$$
>  <compound>
Cc1csc2c(NN=Cc3ccncc3)ncnc12 [Compound 16]

>  <measurement>
< 3.73

$$$$
>  <compound>
COc1cccc(-c2sc3c(NN=Cc4cccnc4)ncnc3c2C)c1 [Compound 426]

>  <measurement>
< 3.88

$$$$
>  <compound>
Clc1ccccc1-c1cc2ncnc(NN=Cc3cccnc3)c2s1 [Compound 317]

>  <measurement>
< 3.86

$$$$

Task: Fill in the blank: the reported pIC50 of COc1ccc(-c2sc3c(NN=Cc4ccc(OC)c(O)c4)ncnc3c2C)cc1 [Compound 425] is ____.
Output: < 3.92

Task: I am curious: what pIC50 value has been reported for Cc1csc2c(NN=Cc3ccc(Br)cc3)ncnc12 [Compound 56] ?
Output: < 3.84
